target: D2 receptor (Homo sapiens (Human), UniProt P14416); experiment: Radioligand binding assay ([3H]-spiperone) on membranes of HEK293 EBNA cells expressing human D2 receptor; conditions: human receptor in HEK293 EBNA cells; 0.7 nM [3H]-spiperone
Sequence (P14416 whole entry): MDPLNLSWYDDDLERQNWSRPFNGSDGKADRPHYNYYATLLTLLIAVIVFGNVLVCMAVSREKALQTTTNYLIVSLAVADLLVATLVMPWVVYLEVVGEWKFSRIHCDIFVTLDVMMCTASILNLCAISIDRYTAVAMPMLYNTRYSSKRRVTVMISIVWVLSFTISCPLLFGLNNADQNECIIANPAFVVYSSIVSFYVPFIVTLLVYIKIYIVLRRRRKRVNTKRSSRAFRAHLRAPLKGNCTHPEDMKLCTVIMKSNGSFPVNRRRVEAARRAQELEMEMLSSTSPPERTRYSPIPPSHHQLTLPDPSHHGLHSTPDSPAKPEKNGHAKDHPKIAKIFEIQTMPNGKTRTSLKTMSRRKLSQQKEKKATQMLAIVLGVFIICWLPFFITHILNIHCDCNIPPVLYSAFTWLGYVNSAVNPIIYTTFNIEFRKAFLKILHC
property.label: Ki (µM)
The reply should be a number in µM, with the unit left off.

Some solved cases for reference:
>>> reported_measurement("O=C(CC1CC1)N[C@H]1CC[C@H](CCN2CCC(c3cccc4c3OCO4)CC2)CC1")
0.303
>>> reported_measurement("O=C(N[C@H]1CC[C@H](CCN2CCC(c3cccc4c3OCO4)CC2)CC1)C1(C(F)(F)F)CC1")
0.246
>>> reported_measurement("O=C(C[C@H]1CCCOC1)N[C@H]1CC[C@H](CCN2CCC(c3cccc4c3OCO4)CC2)CC1")
0.408
>>> reported_measurement("O=C(N[C@H]1CC[C@H](CCN2CCC(c3cccc4c3OCO4)CC2)CC1)c1ccccc1")
0.12
>>> reported_measurement("O=C(C[C@@H]1CCCCO1)N[C@H]1CC[C@H](CCN2CCC(c3cccc4c3OCO4)CC2)CC1")
0.422

Under D2 receptor (Homo sapiens (Human), UniProt P14416), report Ki for O=C(N[C@H]1CC[C@H](CCN2CCC(c3cccc4c3OCO4)CC2)CC1)[C@H](O)C(F)(F)F
0.209

Look up and report Ki, with D2 receptor (Homo sapiens (Human), UniProt P14416) as system, for O=C(Nc1ccc(Cl)cc1)N[C@H]1CC[C@H](CCN2CCC(c3cccc4c3OCO4)CC2)CC1
2.71

// fetch Ki; item: CCC(=O)N[C@H]1CC[C@H](CCN2CCC(c3cccc4c3OCO4)CC2)CC1 ; system: D2 receptor (Homo sapiens (Human), UniProt P14416)
0.204
